# Stimulation Index, FXa generation assay, 800 nM OA antibody per entry
# Experimental Target: human plasma-derived Factor IXa (human, UniProt P00740 47-191; P00740 227-461)
# Sequence (P00740 47-191, chain 1 of 2): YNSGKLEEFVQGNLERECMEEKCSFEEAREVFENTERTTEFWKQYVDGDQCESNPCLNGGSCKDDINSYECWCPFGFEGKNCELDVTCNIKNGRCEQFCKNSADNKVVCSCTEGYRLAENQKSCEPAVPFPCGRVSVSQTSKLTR
# Sequence (P00740 227-461, chain 2 of 2): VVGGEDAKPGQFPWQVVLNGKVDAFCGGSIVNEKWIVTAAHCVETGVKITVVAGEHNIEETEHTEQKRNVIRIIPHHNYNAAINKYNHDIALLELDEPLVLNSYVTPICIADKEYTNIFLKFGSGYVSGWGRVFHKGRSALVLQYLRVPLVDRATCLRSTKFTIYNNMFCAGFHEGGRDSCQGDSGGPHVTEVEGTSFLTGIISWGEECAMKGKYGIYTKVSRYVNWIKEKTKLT
# Protocol Summary: cell-based or functional assay
Result Type: Stimulation Index, FXa generation assay, 800 nM OA antibody (fold)

Binder: one-armed (OA) mAb01-9986 (antibody, V domains shown) VH: EVQLVESGGGLVQPGRSLRLSCAASGFTFHDYAMHWVRQVPGKGLEWVSGISWRGDIGGYVKSVKGRFTISRDNAKNSLYLQMNSLRAEDTALYYCVKSYGSGSFYNAFDSWGQGTLVTVSS VL: DIQMTQSPSTLSASVGDRVTITCRASQSISSWLAWYQQKPGKAPKFLIYKASRLERGTPSRFSGSGSGTEFSLTISSLQPDDFATYYCLEYSSYIRTFGQGTKVEIK
Assay Value: 5820

Binder: one-armed (OA) mAb11-1039 (antibody, V domains shown) VH: EVQLVESGGGLVQPGRSLKLSCAASKFTFHDYAMHWVRQAPGKGLEWVSGISWKGDIGGYVDSVKGRFTISRDNAKNSLYLQMNSLRAEDTALYYCAKSYGSGSFYNAFDSWGQGTLVTVSS VL: DIQMTQSPSTLSASVGDRVTITCRASQSISSWLAWYQQKPGKAPKFLIYKASKLDRGTPSRFSGSGSGTEFTLTISSLQPDDFATYYCLEYSSYIRTFGQGTKVEIK
Assay Value: 3960

Binder: one-armed (OA) mAb11-0938 (antibody, V domains shown) VH: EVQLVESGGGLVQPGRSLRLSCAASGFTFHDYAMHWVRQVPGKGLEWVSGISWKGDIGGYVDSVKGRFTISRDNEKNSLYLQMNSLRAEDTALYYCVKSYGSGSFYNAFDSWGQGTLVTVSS VL: DIQMTQSPSTLSASVGDRVTITCRASQSISSWLAWYQQKPGKAPKFLIYKASRLDRGVPSRFSGSGSGTEFSLTISSLQPDDFATYYCLEYSSYIRTFGQGTKVEIK
Assay Value: 1820
